Value source: PubChem BioAssay AID248

System: L1210 leukemia ip in BDF1 mice, survival T/C
Experiment: NCI In Vivo Anticancer Drug Screen. Data for tumor model L1210 Leukemia (intraperitoneal) in B6D2F1 (BDF1) mice
Conditions: endpoint: mean survival time; dose: 100.0 mg/kg/injection; schedule: Q01DX009 (ip); vehicle: Klucel (hydroxypropylcellulose) (HPC); higher = longer survival
Method: The antitumor activity of compounds was measured in mice bearing transplantable tumors. Survival or tumor size were measured and the results are expressed as the measurement made in the treated group (T) divided by the measurement made in the vehicle treated control group (C). The tumor model used in this assay is L1210 Leukemia (intraperitoneal) in B6D2F1 (BDF1) mice
Inconclusive results and toxic doses are left out.
measurementLabel: T/C

The measured T/C associated with ClC1=C(Cl)C2(Cl)C3COCC3C1(Cl)C2(Cl)Cl (centres undefined) reads 90 % of control

Query CCOC(=O)c1scnc1C yields T/C of 89 % of control

Entry O=C(O)CCOc1ccccc1[N+](=O)[O-] — recorded T/C = 97 % of control

Entry under test: NC(=S)SCCC(=O)O . Its T/C was 96 % of control

Notebook: COc1ccc(COC(=O)Nc2ccc([N+](=O)[O-])cc2OC)cc1 , T/C read as 90 % of control

***
// field: T/C; key: CC1=CCCC(C)(C)C1/C=C/C(=O)O (centres undefined) ; value = 105 % of control

Value of T/C reported for the compound O=C(Nc1cc2ccccc2cc1C(=O)O)Nc1cccc2ccccc12 is 97 % of control

Memo: C=CCC(C#N)(CCN(C)C)c1cccc2ccccc12 (centres undefined) , reported T/C: 99 % of control

// CSc1ccc(NC(=O)Oc2ccc(NC(C)=O)cc2)cc1 : T/C value = 98 % of control

Please fill in: T/C reported for ClC1=C(Cl)C2(Cl)C(C1Cl)C1(Cl)C(Cl)=C(Cl)C2(Cl)C1Cl (centres undefined) = 97 % of control

The measured T/C associated with Nc1ccc(CCc2ccc(N)cc2[N+](=O)[O-])c([N+](=O)[O-])c1 reads 101 % of control

Lab note: CCCCCCCCCC(=O)N/N=C/c1c[nH]c2ccccc12 gave T/C of 95 % of control

Input c1ccc2c(c1)C(=NN=C1c3ccccc3-c3ccccc31)c1ccccc1-2 . Output T/C: 93 % of control

Summary for this compound, O=C(O)c1cc2ccccc2c(N=Nc2ccc(S(=O)(=O)N(CCCl)CCCl)cc2)c1O : T/C is 113 % of control

----------
System: L1210 leukemia ip in BDF1 mice, survival T/C
Assay: NCI In Vivo Anticancer Drug Screen. Data for tumor model L1210 Leukemia (intraperitoneal) in B6D2F1 (BDF1) mice
Details: endpoint: mean survival time; dose: 200.0 mg/kg/injection; schedule: Q01DX009 (ip); vehicle: saline with Tween-80; higher = longer survival
Protocol: The antitumor activity of compounds was measured in mice bearing transplantable tumors. Survival or tumor size were measured and the results are expressed as the measurement made in the treated group (T) divided by the measurement made in the vehicle treated control group (C). The tumor model used in this assay is L1210 Leukemia (intraperitoneal) in B6D2F1 (BDF1) mice
Inconclusive results and toxic doses are left out.
measurementLabel: T/C

Notebook: C#CCOCC1CNC(=S)O1 (stereo not drawn) , T/C read as 98 % of control

# T/C (compound: CCCCCC(=O)Nc1cccc(OC(=O)NC)c1 ) is 97 % of control

Record summary for CCOC(=O)C(N)CSCc1ccccc1 (stereo not drawn) : reported T/C = 92 % of control

Entry under test: CC(=O)c1ccc(Cc2ccc(C(C)=O)s2)s1 . Its T/C was 89 % of control

***
The compound CN(C)C(=O)c1cccc(NC(=O)Oc2ccccc2)c1 showed T/C equal to 101 % of control

Kindly note the recorded T/C for NC1=NC(=O)/C(=C/c2ccccc2)S1 , which is 91 % of control

# T/C of O=C(O)/C(Br)=C(\Br)c1ccccc1 = 92 % of control

T/C in this record for FC(F)(F)c1nc2nc(Br)c(Br)nc2[nH]1 : 98 % of control

Sure, the documented T/C for S=c1[nH]c2nc(Cl)c(Cl)nc2[nH]1 is 100 % of control

Looking up CCOCc1nc(N)nc(N)c1-c1cccc(Cl)c1 , I see its T/C listed as 117 % of control

Sure, the documented T/C for COc1cc([N+](=O)[O-])c(C)cc1Nc1ccc(OC)c(OC)c1 is 96 % of control

Per the record, CC(=O)c1cccc(NC(=O)Oc2ccc(-c3ccccc3)cc2)c1 has T/C of 95 % of control

Record summary for COc1ccc(OC)c(C2N(Cc3ccc(N(C)C)cc3)CCCN2Cc2ccc(N(C)C)cc2)c1 : reported T/C = 90 % of control

GET /value?item= Nc1ccc(S(=O)(=O)Nc2ccc([N+](=O)[O-])cc2)cc1 &field=T/C returns 110 % of control

Looking up O=C(NC1C=CCCC1)c1ccccc1 (stereo not drawn) , I found its T/C recorded as 96 % of control

The value of T/C measured for the compound COc1cc([N+](=O)[O-])c(Cl)cc1NS(=O)(=O)c1ccccc1 turned out to be 103 % of control

Record summary for Oc1cc(O)c2c(c1)OC(c1ccc(O)c(O)c1)C(O)C2c1c(O)cc(O)c2c1OC(c1ccc(O)c(O)c1)C(O)C2 (stereo not drawn) : reported T/C = 97 % of control

// OCCOc1nc(OCCO)c(Cl)c(C(Cl)(Cl)Cl)n1 : T/C value = 93 % of control
